Test system: human maximum recommended daily dose, FDA database
Assay: DSSTox (FDAMDD) FDA Maximum (Recommended) Daily Dose Database
Details: TherapeuticCategory: prophylactic antiasthmatic; antiallergic; stronger effect = lower value
METRIC: maximum recommended daily dose (mmol/kg-bw/day)
// keep it numeric: no unit symbol after the value

Given the molecule O=C(O)c1cc(=O)c2c(OCC(O)COc3cccc4oc(C(=O)O)cc(=O)c34)cccc2o1 , write its reported maximum recommended daily dose (mmol/kg-bw/day). 0.0284

###

Tested on: human maximum recommended daily dose, FDA database
Assay: DSSTox (FDAMDD) FDA Maximum (Recommended) Daily Dose Database
Conditions: TherapeuticCategory: antitussive; stronger effect = lower value
Lab note: compare maximum recommended daily dose (mmol/kg-bw/day) with 0.006, writing rule met if less and rule not met if equal or more.

Quick check: does CN(C)CCC(O)(c1ccccc1)c1ccccc1Cl (stereo not given) have maximum recommended daily dose (mmol/kg-bw/day) under 0.006? rule met

Quick check: does CCC(=O)O[C@@](Cc1ccccc1)(c1ccccc1)[C@@H](C)CN(C)C have maximum recommended daily dose (mmol/kg-bw/day) under 0.006? rule met

Quick check: does CCN(CC)CCOC(=O)C1(c2ccccc2)CCCC1 have maximum recommended daily dose (mmol/kg-bw/day) under 0.006? rule not met

Quick check: does COc1ccc2c(c1)[C@]13CCCC[C@@H]1[C@H](C2)N(C)CC3 have maximum recommended daily dose (mmol/kg-bw/day) under 0.006? rule not met

Quick check: does OC[C@@H](O)CN1CCN(c2ccccc2)CC1 have maximum recommended daily dose (mmol/kg-bw/day) under 0.006? rule not met

Quick check: does CCCCNc1ccc(C(=O)OCCOCCOCCOCCOCCOCCOCCOCCOCCOC)cc1 have maximum recommended daily dose (mmol/kg-bw/day) under 0.006? rule not met

Quick check: does CN1CCCC(=C(c2cccs2)c2cccs2)C1 have maximum recommended daily dose (mmol/kg-bw/day) under 0.006? rule not met

Quick check: does CC(CN(C)C)C(C)(O)Cc1ccc(Cl)cc1 (stereo not given) have maximum recommended daily dose (mmol/kg-bw/day) under 0.006? rule not met

###

Test system: human maximum recommended daily dose, FDA database
Experiment: DSSTox (FDAMDD) FDA Maximum (Recommended) Daily Dose Database
Details: TherapeuticCategory: anthelmintic; stronger effect = lower value
METRIC: maximum recommended daily dose (mmol/kg-bw/day)

Given the compound c1ccc([C@H]2CN3CCSC3=N2)cc1 , write its reported maximum recommended daily dose (mmol/kg-bw/day). 0.00408

Given the compound CC[C@H](C)[C@H]1O[C@]2(CC[C@@H]1C)C[C@@H]1C[C@@H](C/C=C(\C)[C@@H](O[C@H]3C[C@H](OC)[C@@H](O[C@H]4C[C@H](OC)[C@@H](O)[C@H](C)O4)[C@H](C)O3)[C@@H](C)/C=C/C=C3\CO[C@@H]4[C@H](O)C(C)=C[C@@H](C(=O)O1)[C@]34O)O2 , write its reported maximum recommended daily dose (mmol/kg-bw/day). 0.000171

Given the compound Cc1cc(/C=C/c2ccc3cc(N(C)C)ccc3[n+]2C)c(C)n1-c1ccccc1 , write its reported maximum recommended daily dose (mmol/kg-bw/day). 0.00434

###

Tested on: human maximum recommended daily dose, FDA database
Assay: DSSTox (FDAMDD) FDA Maximum (Recommended) Daily Dose Database
Details: TherapeuticCategory: anticholinesteremic; stronger effect = lower value
METRIC: maximum recommended daily dose (mmol/kg-bw/day)

State recorded maximum recommended daily dose (mmol/kg-bw/day) with human maximum recommended daily dose, FDA database, entry C/C=C(/CC[C@@H](C)[C@H]1CC[C@H]2C3=CC[C@H]4[C@H](C)[C@@H](O)CC[C@]4(C)[C@H]3CC[C@]12C)C(C)C , no comment. 0.234

State recorded maximum recommended daily dose (mmol/kg-bw/day) with human maximum recommended daily dose, FDA database, entry CC[C@H](CC[C@@H](C)[C@H]1CC[C@H]2[C@@H]3CC=C4C[C@@H](O)CC[C@]4(C)[C@H]3CC[C@]12C)C(C)C , no comment. 0.241

###

System: human maximum recommended daily dose, FDA database
Test: DSSTox (FDAMDD) FDA Maximum (Recommended) Daily Dose Database
Conditions: TherapeuticCategory: diuretic; stronger effect = lower value
Provide the recorded maximum recommended daily dose (mmol/kg-bw/day) for the entries that follow.

State recorded maximum recommended daily dose (mmol/kg-bw/day) with human maximum recommended daily dose, FDA database, entry CCCCNc1cc(C(=O)O)cc(S(N)(=O)=O)c1Oc1ccccc1 , no comment. 0.000458

State recorded maximum recommended daily dose (mmol/kg-bw/day) with human maximum recommended daily dose, FDA database, entry CC(=O)N=c1sc(S(N)(=O)=O)nn1C , no comment. 0.0212

State recorded maximum recommended daily dose (mmol/kg-bw/day) with human maximum recommended daily dose, FDA database, entry Cc1cccc(Nc2ccncc2S(=O)(=O)NC(=O)NC(C)C)c1 , no comment. 0.00956

State recorded maximum recommended daily dose (mmol/kg-bw/day) with human maximum recommended daily dose, FDA database, entry NS(=O)(=O)c1cc2c(cc1Cl)NCNS2(=O)=O , no comment. 0.0112

State recorded maximum recommended daily dose (mmol/kg-bw/day) with human maximum recommended daily dose, FDA database, entry NS(=O)(=O)c1cc2c(cc1Cl)NC=NS2(=O)=O , no comment. 0.113

State recorded maximum recommended daily dose (mmol/kg-bw/day) with human maximum recommended daily dose, FDA database, entry C[C@]12CCC(=O)C=C1C=C[C@@H]1[C@@H]2CC[C@@]2(C)[C@H]1CC[C@@]2(O)CCC(=O)O , no comment. 0.0371

State recorded maximum recommended daily dose (mmol/kg-bw/day) with human maximum recommended daily dose, FDA database, entry NS(=O)(=O)c1cc(C(=O)O)cc(N2CCCC2)c1Oc1ccccc1 , no comment. 0.000552

State recorded maximum recommended daily dose (mmol/kg-bw/day) with human maximum recommended daily dose, FDA database, entry Nc1nc(N)c2nc(-c3ccccc3)c(N)nc2n1 , no comment. 0.0131

State recorded maximum recommended daily dose (mmol/kg-bw/day) with human maximum recommended daily dose, FDA database, entry CCC1NC(=O)c2cc(S(N)(=O)=O)c(Cl)cc2N1 (centres undefined) , no comment. 0.0115

###

System: human maximum recommended daily dose, FDA database
Assay: DSSTox (FDAMDD) FDA Maximum (Recommended) Daily Dose Database
Settings: TherapeuticCategory: mucolytic; expectorant; stronger effect = lower value
METRIC: maximum recommended daily dose (mmol/kg-bw/day)
// keep it numeric: no unit symbol after the value

State recorded maximum recommended daily dose (mmol/kg-bw/day) with human maximum recommended daily dose, FDA database, entry NC(CSCC(=O)O)C(=O)O (stereo unspecified) , no comment. 0.209

###

System: human maximum recommended daily dose, FDA database
Experiment: DSSTox (FDAMDD) FDA Maximum (Recommended) Daily Dose Database
Settings: TherapeuticCategory: antidote to acetaminophen; stronger effect = lower value
METRIC: maximum recommended daily dose (mmol/kg-bw/day)
// keep it numeric: no unit symbol after the value

Given the compound NCCS , write its reported maximum recommended daily dose (mmol/kg-bw/day). 0.432

###

Test system: human maximum recommended daily dose, FDA database
Test: DSSTox (FDAMDD) FDA Maximum (Recommended) Daily Dose Database
Details: TherapeuticCategory: hypoglycemic agent; stronger effect = lower value
METRIC: maximum recommended daily dose (mmol/kg-bw/day)
// keep it numeric: no unit symbol after the value

Given the compound CCCCNC(=O)NS(=O)(=O)c1ccc(C)cc1 , write its reported maximum recommended daily dose (mmol/kg-bw/day). 0.123

###

Tested on: human maximum recommended daily dose, FDA database
Assay: DSSTox (FDAMDD) FDA Maximum (Recommended) Daily Dose Database
Conditions: TherapeuticCategory: vasodilator; stronger effect = lower value
Provide the recorded maximum recommended daily dose (mmol/kg-bw/day) for the entries that follow.
// keep it numeric: no unit symbol after the value

Given the molecule O=C(OC1C(OC(=O)c2cccnc2)C(OC(=O)c2cccnc2)C(OC(=O)c2cccnc2)C(OC(=O)c2cccnc2)C1OC(=O)c1cccnc1)c1cccnc1 (stereo not given) , write its reported maximum recommended daily dose (mmol/kg-bw/day). 0.0823

Given the molecule CC(=O)Oc1cc(C(C)C)c(OCCN(C)C)cc1C , write its reported maximum recommended daily dose (mmol/kg-bw/day). 0.0191

Given the molecule OCc1cccnc1 , write its reported maximum recommended daily dose (mmol/kg-bw/day). 0.0458

Given the molecule CC1CC(OC(=O)C(O)c2ccccc2)CC(C)(C)C1 (stereo not given) , write its reported maximum recommended daily dose (mmol/kg-bw/day). 0.0966

Given the molecule CCCCC[C@H](O)/C=C/[C@H]1[C@H](O)CC(=O)[C@@H]1CCCCCCC(=O)O , write its reported maximum recommended daily dose (mmol/kg-bw/day). 2.82e-07

###

Provide the recorded maximum recommended daily dose (mmol/kg-bw/day) for the entries that follow.
Test system: human maximum recommended daily dose, FDA database
Assay: DSSTox (FDAMDD) FDA Maximum (Recommended) Daily Dose Database
Conditions: TherapeuticCategory: analgesic; anti inflammatory; stronger effect = lower value
// keep it numeric: no unit symbol after the value

Given the molecule CS(=O)(=O)c1ccc(C2=C(c3ccccc3)C(=O)OC2)cc1 , write its reported maximum recommended daily dose (mmol/kg-bw/day). 0.00265

Given the molecule CCCC1C(=O)N2C(N(C)C)=Nc3ccc(C)cc3N2C1=O (stereo not given) , write its reported maximum recommended daily dose (mmol/kg-bw/day). 0.0892

Given the molecule CC(C(=O)O)c1cccc(Oc2ccccc2)c1 (stereo not given) , write its reported maximum recommended daily dose (mmol/kg-bw/day). 0.206

Given the molecule O=C(Oc1ccccc1C(=O)O)c1ccccc1O , write its reported maximum recommended daily dose (mmol/kg-bw/day). 0.258

Given the molecule CC(C(=O)O)c1ccc2oc(-c3ccc(Cl)cc3)nc2c1 (stereo not given) , write its reported maximum recommended daily dose (mmol/kg-bw/day). 0.0331

Given the molecule CCOc1c(N2CCOCC2)cnn(C)c1=O , write its reported maximum recommended daily dose (mmol/kg-bw/day). 0.0139

Given the molecule O=C(c1ccccc1)c1ccc2n1CCC2C(=O)O (stereo not given) , write its reported maximum recommended daily dose (mmol/kg-bw/day). 0.00979

Given the molecule Cc1cc(CC(=O)O)n(C)c1C(=O)c1ccc(Cl)cc1 , write its reported maximum recommended daily dose (mmol/kg-bw/day). 0.0343

Given the molecule O=C(O)c1cc(-c2ccc(F)cc2F)ccc1O , write its reported maximum recommended daily dose (mmol/kg-bw/day). 0.0999

Given the molecule O=C(O)c1ccccc1Nc1cccc(C(F)(F)F)c1 , write its reported maximum recommended daily dose (mmol/kg-bw/day). 0.0356
